Assay: Hemolysis assay, 50% lysis of RBC's
Format: cell-based, human
Details: 0.25% suspension of human erythrocytes (RBCs); 0.25% human erythrocytes, 10 mM Tris, 150 mM NaCl, pH 7.0, 1 h at 37° C.; read-out: Hemolysis HD50
readout-label: HC50 at 1 h
Hey, just the number and the unit after it is fine.

INPUT: Consider the molecule CC(C)C[C@@H](CC(=O)O)NC(=O)C[C@H](CCCCN)NC(=O)C[C@@H](NC(=O)C[C@H](CC(C)C)NC(=O)C[C@H](CCCCN)NC(=O)C[C@@H](NC(=O)C[C@H](CC(C)C)NC(=O)C[C@H](CCCCN)NC(=O)C[C@@H](N)C(C)C)C(C)C)C(C)C and give its measured HC50 at 1 h.
OUTPUT: 86 µM
